Tested on: P12-Ichikawa
Test: cell viability relative to DMSO control; higher = less cytotoxic
Conditions: HPLM + 10% dialyzed FBS; 48 h; 0.000781 µM
# maps each entry to its cell viability
property-label: cell viability (%)

compound	assayed-target	property-label	unit-annotation	value-observed
Cc1nnc(C(C)C)n1[C@@H]1C[C@H]2CC[C@@H](C1)N2CC[C@H](NC(=O)C1CCC(F)(F)CC1)c1ccccc1	P12-Ichikawa	cell viability	%	88.3
CC(=O)OCC(=O)[C@@]1(O)CC[C@H]2[C@@H]3CCC/4=C/C(=O)/C=C\[C@]4(C)[C@H]3[C@@H](O)C[C@]12C	P12-Ichikawa	cell viability	%	120
Cc1cccc(-c2[nH]c(C(C)(C)C)nc2-c2ccc3nccnc3c2)n1	P12-Ichikawa	cell viability	%	120
COc1cc2c(cc1OC)CN(CCc1ccc(NC(=O)c3cccc4c(=O)c5cccc(OC)c5[nH]c34)cc1)CC2	P12-Ichikawa	cell viability	%	101
Nc1nccc(-c2ccc3noc(-c4ccc(Cl)cc4)c3c2)n1	P12-Ichikawa	cell viability	%	124
COc1cc(C[C@@H](CO)[C@H](CO)Cc2ccc(O)c(OC)c2)ccc1O	P12-Ichikawa	cell viability	%	94.8
CC1(C)[C@@H](O)CC[C@@]2(C)[C@H]1CC[C@]3(C)[C@@H]2C(=O)\C=C/4[C@@H]5C[C@](C)(CC[C@]5(C)CC[C@@]34C)C(O)=O	P12-Ichikawa	cell viability	%	99.9
C=C1CCC2[C@](C)(CO)C(O)CC[C@]2(C)C1C/C=C1/C(=O)OCC1O (stereo not given in full)	P12-Ichikawa	cell viability	%	122
CO[C@H]1C[C@@H]2CC[C@@H](C)[C@@](O)(O2)C(=O)C(=O)N2CCCC[C@H]2C(=O)O[C@H]([C@@H](C)C[C@@H]2CC[C@@H](O)[C@H](OC)C2)CC(=O)[C@H](C)/C=C(\C)[C@@H](O)[C@@H](OC)C(=O)[C@H](C)C[C@H](C)/C=C/C=C/C=C/1C	P12-Ichikawa	cell viability	%	118
Cc1nc2ccc(CN(C)c3ccc(C(=O)N[C@@H](CCC(=O)O)C(=O)O)s3)cc2c(=O)[nH]1	P12-Ichikawa	cell viability	%	119

----------
System: SEM cells
Assay: AUC of viability dose-response curve (% viability x log10 dose units); higher = less sensitive
Conditions: RPMI 5 mM glucose + 10% FBS; 48 h
Exam item: assign YES to entries whose AUC of viability dose-response curve is below 400 and NO to entries at or above 400. Note that a value of exactly 400 receives NO.

compound	assayed-target	class
Cc1cccc(-c2[nH]c(C(C)(C)C)nc2-c2ccc3nccnc3c2)n1	SEM cells	YES
COC(=O)[C@H](Cc1ccccc1)NC(=O)[C@@H](N)CC(=O)O	SEM cells	NO
CC(C)(C)[C@]1(O)C[C@@H]2OC(=O)C[C@@]23C(=O)O[C@@H]2OC(=O)[C@H](O)C213 (stereo partly specified)	SEM cells	NO
N=C1S/C(=C\c2ccc(-c3ccc4c(c3)C(=O)NC4=O)o2)C(=O)N1c1ccc(Br)cc1	SEM cells	YES
Cc1nnc(C(C)C)n1[C@@H]1C[C@H]2CC[C@@H](C1)N2CC[C@H](NC(=O)C1CCC(F)(F)CC1)c1ccccc1	SEM cells	YES
Cn1cnc(N)c2ncnc1-2	SEM cells	YES
CCC(=O)N1CCN(CC1)C2=C(C=C(C=C2)N3C(=O)\C=C/C4=C3C5=CC(=CC=C5N=C4)C6=CN=C7C=CC=CC7=C6)C(F)(F)F	SEM cells	YES
COc1cccc(OC)c1-c1cc(C(=O)NC2(C(=O)O)C3CC4CC(C3)CC2C4)nn1-c1ccnc2cc(Cl)ccc12 (stereo unspecified)	SEM cells	NO
O=C(Nc1cccnc1)N1CCC(Cc2cccc(Oc3ccc(C(F)(F)F)cn3)c2)CC1	SEM cells	YES
CC[C@H](C)C(=O)O[C@H]1C[C@@H](C)\C=C2\C=C/[C@H](C)[C@H](CC[C@@H]3C[C@@H](O)CC(=O)O3)[C@@H]12	SEM cells	YES
C[S+](=O)([O-])N1CCN(Cc2cc3nc(-c4cccc5[nH]ncc45)nc(N4CCOCC4)c3s2)CC1	SEM cells	YES
O=C(Nc1ccccc1)Nc1ccc(-c2ccc(C(=O)[C@@H]3CCC[C@H]3C(=O)O)cc2)cc1	SEM cells	NO
CCCCN1CCC(CNC(=O)c2c3n(c4ccccc24)CCCO3)CC1	SEM cells	NO
Nc1ncnc2c1ncn2[C@@H]1O[C@H](CO)[C@@H](O)[C@H]1O	SEM cells	NO
N[C@@H]1C[C@H]1c1ccccc1	SEM cells	NO
COc1cccc(N(C)C(=S)Oc2ccc3c(c2)CCCC3)n1	SEM cells	NO
